Tested on: ACHN cell line
Assay: drug screen of the SelleckChem kinase inhibitor library with and without 5 uM SU-329, Cell-Titer Glo after 5 days
Type: cell-based
Conditions: kinase inhibitor at 200 nM with and without 5 uM SU329; ACHN cell line; 5 days; Cell-Titer Glo
Classification field: YES = log2fc at or over 0.1; NO = log2fc under 0.1.

molecule="COc1cccc(-c2cc(=O)c3ccccc3o2)c1N [PD98059, reference compound]" class=YES
molecule="CCN1/C(=C/C(C)=O)Sc2ccc(OC)cc21 [TG003]" class=YES
molecule="C#Cc1cccc(Nc2ncnc3cc4c(cc23)OCCOCCOCCO4)c1 [Icotinib]" class=YES
molecule="COc1ccc(-c2cc3c(C)nc(N)nc3n([C@H]3CC[C@H](OCCO)CC3)c2=O)cn1 [PF-04691502]" class=NO
molecule="Cc1c(CN2CCN(C(=O)[C@H](C)O)CC2)sc2c(N3CCOCC3)nc(-c3cnc(N)nc3)nc12 [Apitolisib (GDC-0980, RG7422)]" class=NO

----------
Molecular target: LKB1 (Homo sapiens, UniProt Q15831+Q7RTN6)
Sequence (Q15831 whole entry): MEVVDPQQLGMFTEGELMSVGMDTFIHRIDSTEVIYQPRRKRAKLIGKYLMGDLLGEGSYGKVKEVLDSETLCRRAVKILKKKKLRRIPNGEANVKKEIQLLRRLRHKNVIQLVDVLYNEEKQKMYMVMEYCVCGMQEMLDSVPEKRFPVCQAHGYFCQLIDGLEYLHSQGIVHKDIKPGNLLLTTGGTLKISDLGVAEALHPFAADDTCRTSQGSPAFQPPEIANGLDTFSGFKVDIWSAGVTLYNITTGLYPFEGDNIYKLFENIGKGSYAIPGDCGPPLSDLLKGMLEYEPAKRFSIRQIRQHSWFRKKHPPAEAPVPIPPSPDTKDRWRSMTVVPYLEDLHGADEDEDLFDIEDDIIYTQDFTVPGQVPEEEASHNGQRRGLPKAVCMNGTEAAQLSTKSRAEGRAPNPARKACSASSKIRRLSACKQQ
Sequence (Q7RTN6 whole entry): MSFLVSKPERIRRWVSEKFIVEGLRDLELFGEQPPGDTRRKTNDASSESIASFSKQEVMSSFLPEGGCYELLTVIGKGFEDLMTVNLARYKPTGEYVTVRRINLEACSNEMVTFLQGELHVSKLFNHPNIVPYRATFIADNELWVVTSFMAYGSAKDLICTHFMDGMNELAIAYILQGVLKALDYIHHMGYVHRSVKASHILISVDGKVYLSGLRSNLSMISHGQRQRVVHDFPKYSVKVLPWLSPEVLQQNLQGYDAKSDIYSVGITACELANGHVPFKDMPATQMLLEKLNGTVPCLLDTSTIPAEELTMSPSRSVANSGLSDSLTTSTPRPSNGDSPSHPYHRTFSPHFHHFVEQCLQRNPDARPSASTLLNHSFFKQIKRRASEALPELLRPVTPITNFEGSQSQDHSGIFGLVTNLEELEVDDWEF
Sequence (Q9Y376 whole entry partner): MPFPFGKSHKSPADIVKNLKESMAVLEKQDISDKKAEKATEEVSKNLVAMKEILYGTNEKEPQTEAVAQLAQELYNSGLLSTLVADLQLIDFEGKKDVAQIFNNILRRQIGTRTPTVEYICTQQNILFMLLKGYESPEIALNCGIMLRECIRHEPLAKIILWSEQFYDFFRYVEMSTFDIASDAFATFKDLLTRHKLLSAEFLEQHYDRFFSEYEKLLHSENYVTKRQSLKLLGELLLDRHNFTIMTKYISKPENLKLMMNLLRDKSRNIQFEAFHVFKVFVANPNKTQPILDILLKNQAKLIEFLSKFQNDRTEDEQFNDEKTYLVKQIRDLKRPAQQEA
Assay: in vitro LKB1 functional activity
Assay type: biochemical
Conditions: APA analogs
RESULT_TYPE: LKB1 % Act. Increase

compound_structure_string=Cc1ccc(-c2cnc(N)c(C(=O)Nc3ccc(S(=O)(=O)NC(=O)CCOCc4ccccc4)cc3)n2)cc1 study_target="LKB1 (Homo sapiens, UniProt Q15831+Q7RTN6)" result_type="LKB1 % Act. Increase" experimental_result="D (D=<1000%)"
compound_structure_string=Cc1ccc(-c2cnc(N)c(C(=O)Nc3ccc(C(N)=O)cc3)n2)cc1 study_target="LKB1 (Homo sapiens, UniProt Q15831+Q7RTN6)" result_type="LKB1 % Act. Increase" experimental_result="D (D=<1000%)"
compound_structure_string=CC(=O)NS(=O)(=O)c1ccc(NC(=O)c2nc(-c3cnc(N)nc3)cnc2N)cc1 study_target="LKB1 (Homo sapiens, UniProt Q15831+Q7RTN6)" result_type="LKB1 % Act. Increase" experimental_result="D (D=<1000%)"
compound_structure_string=CC(=O)NS(=O)(=O)c1ccc(NC(=O)c2nc(-c3csc4ccccc34)cnc2N)cc1 study_target="LKB1 (Homo sapiens, UniProt Q15831+Q7RTN6)" result_type="LKB1 % Act. Increase" experimental_result="C (C=199-1000%)"
compound_structure_string=Cc1ccc(-c2cnc(N)c(C(=O)Nc3ccc(C(=O)NS(C)(=O)=O)cc3)n2)cc1 study_target="LKB1 (Homo sapiens, UniProt Q15831+Q7RTN6)" result_type="LKB1 % Act. Increase" experimental_result="D (D=<1000%)"
compound_structure_string=COP(=O)(CS(=O)(=O)c1ccc(NC(=O)c2nc(-c3ccc(C)c(O)c3)cnc2N)cc1)OC study_target="LKB1 (Homo sapiens, UniProt Q15831+Q7RTN6)" result_type="LKB1 % Act. Increase" experimental_result="C (C=199-1000%)"

----------
Below, each entry is listed with its recorded log2fc.
System: ACHN cell line
Experiment: drug screen of the SelleckChem kinase inhibitor library with and without 5 uM SU-329, Cell-Titer Glo after 5 days
Format: cell-based
Conditions: kinase inhibitor at 200 nM with and without 5 uM SU329; ACHN cell line; 5 days; Cell-Titer Glo
RESULT_TYPE: log2fc

compound_structure_string=Cc1nc(Nc2n[nH]c3c2CN(C(=O)N[C@H](CN(C)C)c2ccccc2)C3(C)C)c2sccc2n1 experimental_result=0.8283
compound_structure_string=CCc1cncnc1N1CCN(Cc2nc3ccc(C(F)(F)F)cc3[nH]2)CC1 experimental_result=0.5187
compound_structure_string=Cc1cc(CS(=O)(=O)c2ccccc2)cc(OCc2ccc(CN3CCC[C@@H]3CO)cc2)c1 experimental_result=0.8598
compound_structure_string=CC(C)CC(=O)Nc1n[nH]c2c1CN(C(=O)C1CCN(C)CC1)C2(C)C experimental_result=−0.1187
